tested on: 134 cancer cell lines; experiment: Cell viability assay (ATPlite, 72 hours), IC50 on cancer cell line panel; conditions: HEC-6, read-out: IC50 in cell proliferation assay, HEC-6 cell line (EGFR p.A289V)
outcome-measure: IC50

[
  {
    "structure-string": "O=C(Nc1cnn2ccc(N3CCC[C@@H]3c3cc(F)ccc3F)nc12)N1CC[C@H](O)C1",
    "IC50": "> 31.6 µM"
  },
  {
    "structure-string": "CC(C)(C)c1nc(-c2cccc(NS(=O)(=O)c3c(F)cccc3F)c2F)c(-c2ccnc(N)n2)s1",
    "IC50": "> 10 µM"
  },
  {
    "structure-string": "FC(F)(F)c1ccc(CNc2ccc(Cc3c[nH]c4ncc(Cl)cc34)cn2)cn1",
    "IC50": "> 31.6 µM"
  }
]

From here, focus on the item given below.
Entry Cn1cnc2c(F)c(Nc3ccc(Br)cc3Cl)c(C(=O)NOCCO)cc21 — recorded IC50 = > 31.6 µM
